Exercise: for every item that follows, state its recorded log10 IC50.
- Tested on: Toxoplasma gondii
- test: Inhibition of Toxoplasma gondii cell growth
- Format: functional, organism-based
Note the log scale: values are log10 of IC50 expressed in nM.

Each compound below has a recorded value; state its log10 IC50.
1. Cc1ccc(SCc2cnc3nc(N)nc(N)c3n2)cc1
2. Nc1nc(N)c2cc(CNc3cccc4ccccc34)ccc2n1
3. COc1ccc(C)c(NCc2cnc3nc(N)nc(N)c3c2C)c1
4. Cc1c(CN(C)c2cccc3c2CCCC3)cnc2nc(N)nc(N)c12
5. Nc1nc(N)c2nc(CSc3ccccc3)cnc2n1
6. COc1ccc(SCc2cnc3nc(N)nc(N)c3n2)cc1OC

[3.70, 1.78, 1.48, 1.30, 4.00, 3.70]

###

Exercise: for every item that follows, state its recorded pIC50.
- Tested on: Toxoplasma gondii
- test: Inhibition of Toxoplasma gondii cell growth
- Type: functional, organism-based
Answers are plain numbers, as −log10 of the molar value.

Recorded pIC50, per entry:
>  <compound>
COc1ccc(N(C)Cc2cnc3nc(N)nc(N)c3c2C)cc1OC

>  <pIC50>
6.82

$$$$
>  <compound>
Nc1nc(N)c2nc(CSc3cccc4ccccc34)cnc2n1

>  <pIC50>
5.52

$$$$
>  <compound>
COc1ccc(N(C)Cc2cnc3nc(N)nc(N)c3c2C)c(OC)c1

>  <pIC50>
6.52

$$$$

Each compound below has a recorded value; state its pIC50.
1. COc1cc(NCc2cnc3nc(N)nc(N)c3n2)cc(OC)c1OC
2. COc1ccc(OC)c(CCc2cnc3nc(N)nc(N)c3n2)c1
3. CCc1nc(N)nc(N)c1-c1ccc(Cl)cc1 [PYRIMETHAMINE]
4. COc1ccc(NCc2cnc3nc(N)nc(N)c3c2C)c(OC)c1
5. COc1ccc(SCc2cnc3nc(N)nc(N)c3c2C)cc1OC
6. Nc1nc(N)c2nc(CCc3cccc4ccccc34)cnc2n1
7. Cc1c(CSc2ccc(Cl)cc2)cnc2nc(N)nc(N)c12

1. 4.96
2. 5.30
3. 6.40
4. 6.70
5. 5.30
6. 6.00
7. 6.52

Which measured pIC50 value corresponds to `COc1ccc(NCc2cnc3nc(N)nc(N)c3c2C)c(C)c1` ?
6.22

###

Target sequence: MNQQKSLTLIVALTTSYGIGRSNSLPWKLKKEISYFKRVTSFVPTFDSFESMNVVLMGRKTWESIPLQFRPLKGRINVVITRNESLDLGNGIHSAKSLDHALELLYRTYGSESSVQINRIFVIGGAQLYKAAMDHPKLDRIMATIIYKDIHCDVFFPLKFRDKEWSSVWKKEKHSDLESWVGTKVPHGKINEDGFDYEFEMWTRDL
Use IC50 to assign classes; range list: bin A = under 90 nM, bin B = from 90 nM up to 10000 nM, bin C = 10000 nM and over

Please review the entries below; each comes with its answer.
>  <query-smiles>
COc1ccc(OC)c(CCc2cnc3nc(N)nc(N)c3n2)c1

>  <assigned-label>
bin C

$$$$
>  <query-smiles>
COc1ccc(C(F)(F)F)cc1N(C)Cc1cnc2nc(N)nc(N)c2c1C

>  <assigned-label>
bin B

$$$$
>  <query-smiles>
Cc1c(CSc2ccccc2)cnc2nc(N)nc(N)c12

>  <assigned-label>
bin B

$$$$
>  <query-smiles>
COc1ccc(OC)c(CCc2cnc3nc(N)nc(N)c3c2C)c1

>  <assigned-label>
bin B

$$$$
>  <query-smiles>
COc1ccc(C(F)(F)F)cc1NCc1cnc2nc(N)nc(N)c2n1

>  <assigned-label>
bin C

$$$$

Where would `COc1cc(OC)cc(N(C)Cc2cnc3nc(N)nc(N)c3c2C)c1` land among the classes by reported IC50?
bin A

Here is the next compound: `Cc1c(CCc2cccc3ccccc23)cnc2nc(N)nc(N)c12`
bin A

Here is the next compound: `Nc1nc(N)c2nc(CSc3cccc4ccccc34)cnc2n1`
bin B

Reference source for all entries: ChEMBL document CHEMBL1129525
